biological target: T1, native human ApoC3 (human, UniProt P02656 21-99, biotinylated in the captured-antigen assays (Tables 6 and 8); sites not stated); assay: SPR, antigen immobilized on CM5 chip, IgG as analyte, pH 7.4
T1 construct: also called nhuApoC3; native huApoC3
T1 sequence (P02656 21-99): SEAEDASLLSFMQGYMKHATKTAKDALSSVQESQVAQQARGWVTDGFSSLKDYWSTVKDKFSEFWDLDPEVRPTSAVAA
RECORDED_ENDPOINT: kon (M⁻¹ s⁻¹)
// note: answer is a bare numeric in M⁻¹ s⁻¹

Example entries and their recorded answers appear below.
{"columns": ["BINDER", "UNIT_SPEC", "QUANTITATIVE_READOUT"],
 "data": [
  ["29G11 IgG (antibody, V domains shown) VH: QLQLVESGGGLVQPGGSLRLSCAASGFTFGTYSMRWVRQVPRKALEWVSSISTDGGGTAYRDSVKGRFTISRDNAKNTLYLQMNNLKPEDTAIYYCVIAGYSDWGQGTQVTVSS VL: DVVLTQTPGSLSVVPGGSASISCKASQSLVYSDGKTYLYWLRQKPGQSPQRLIYQVSNRPSGVPDRFTGSGSGTDFTLKISGVKAEDAGVYYCAQDTYSTKTFGQGTKLEIK", "M⁻¹ s⁻¹", "1.44e+06"],
  ["29A06 IgG (antibody, V domains shown) VH: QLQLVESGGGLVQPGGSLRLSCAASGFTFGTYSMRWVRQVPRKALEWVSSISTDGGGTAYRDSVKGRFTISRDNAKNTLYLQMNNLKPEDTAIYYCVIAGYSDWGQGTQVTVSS VL: DVVLTQTPGSLSVVPGESASISCKASQNLVHSNGKTYLYWLLQKPGQSPQRLIYQVSNRGSEVPDRFTGSGSGTDFTLKISGVKAEDAGVYYCAQGTYWPKTFGQGTKLEIK", "M⁻¹ s⁻¹", 950000]
]}

Okay, now this binder:
// returns reported kon for input 29F10 IgG (antibody, V domains shown) VH: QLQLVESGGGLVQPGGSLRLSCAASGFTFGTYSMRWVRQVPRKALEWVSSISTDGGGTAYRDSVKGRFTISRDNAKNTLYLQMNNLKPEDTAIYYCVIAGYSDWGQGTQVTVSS VL: DVVLTQTPGSLSVVPGEPASVSCKASQSLVHPDGKTYLYWLLQKPGQSPQRLIYQVSNRGSGVPDRFTGSGSGTDFTLEISGVKAEDAGVYYCAQGTYWPKTFGQGTKLEIK 620000

Reference source for all entries: patent US20210347865A1
